measured_on: KDR kinase (Homo sapiens, UniProt P35968)
Construct: purchased Millipore (KinaseProfiler Service)
Sequence (P35968 20-1356): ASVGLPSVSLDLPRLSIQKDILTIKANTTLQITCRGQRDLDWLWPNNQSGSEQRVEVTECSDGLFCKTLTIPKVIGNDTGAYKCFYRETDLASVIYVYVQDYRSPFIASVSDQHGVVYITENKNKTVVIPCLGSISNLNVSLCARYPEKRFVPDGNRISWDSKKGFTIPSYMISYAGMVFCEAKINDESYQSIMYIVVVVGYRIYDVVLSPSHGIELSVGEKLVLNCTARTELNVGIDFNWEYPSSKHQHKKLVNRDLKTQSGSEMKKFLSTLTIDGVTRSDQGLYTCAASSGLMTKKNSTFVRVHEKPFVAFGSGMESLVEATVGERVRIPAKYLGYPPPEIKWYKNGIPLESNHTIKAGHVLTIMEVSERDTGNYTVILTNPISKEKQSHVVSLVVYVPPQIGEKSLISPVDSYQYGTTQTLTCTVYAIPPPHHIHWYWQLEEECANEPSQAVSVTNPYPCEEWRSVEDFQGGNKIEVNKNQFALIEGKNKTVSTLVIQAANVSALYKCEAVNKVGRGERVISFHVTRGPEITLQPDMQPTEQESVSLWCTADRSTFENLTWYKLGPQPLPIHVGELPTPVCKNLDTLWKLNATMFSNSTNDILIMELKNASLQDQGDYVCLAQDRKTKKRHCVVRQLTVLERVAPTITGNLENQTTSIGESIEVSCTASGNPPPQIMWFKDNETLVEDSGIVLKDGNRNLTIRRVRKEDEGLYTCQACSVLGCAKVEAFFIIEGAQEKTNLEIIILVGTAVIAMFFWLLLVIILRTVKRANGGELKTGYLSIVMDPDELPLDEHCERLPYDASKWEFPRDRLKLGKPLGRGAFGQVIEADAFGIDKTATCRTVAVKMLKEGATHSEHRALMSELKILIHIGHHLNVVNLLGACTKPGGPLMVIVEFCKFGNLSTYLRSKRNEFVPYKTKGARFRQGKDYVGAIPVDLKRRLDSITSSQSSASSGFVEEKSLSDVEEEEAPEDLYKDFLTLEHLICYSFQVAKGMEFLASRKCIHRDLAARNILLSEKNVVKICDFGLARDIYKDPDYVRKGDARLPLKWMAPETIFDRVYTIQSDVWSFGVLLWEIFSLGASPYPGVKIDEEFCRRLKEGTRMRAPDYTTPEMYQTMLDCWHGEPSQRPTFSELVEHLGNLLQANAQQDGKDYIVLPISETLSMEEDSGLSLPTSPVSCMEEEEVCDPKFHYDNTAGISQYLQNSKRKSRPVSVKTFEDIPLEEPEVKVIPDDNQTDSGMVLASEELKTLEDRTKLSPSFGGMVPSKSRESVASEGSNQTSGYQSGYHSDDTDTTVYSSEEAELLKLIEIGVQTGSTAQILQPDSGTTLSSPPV
assay_notes: KinaseProfiler kinase inhibition assay, KDR
Assay type: biochemical
experimental_conditions: 1 μM compound
reported_metric: inhibition at 1 µM (%)

1. Cc1cc2c(F)c(Oc3cc(Nc4cc(-c5ccco5)[nH]n4)ncn3)ccc2[nH]1; 88
2. Cc1cc2c(F)c(Oc3cc(Nc4ccc(N5CCOCC5)cc4)ncn3)ccc2[nH]1; 96
3. Cc1cc2c(F)c(Oc3cc(Nc4ccc(N5CCN(C)CC5)cn4)ncn3)ccc2[nH]1; 97
4. COc1ccc(-c2cc(Nc3cc(Oc4ccc5[nH]c(C)cc5c4F)ncn3)n[nH]2)cc1OC; 97
5. Cc1cc2c(F)c(Oc3cc(Nc4ccc(N5CCNCC5)cc4)ncn3)cc(F)c2[nH]1; 97

Reference source: patent US10766879B2
